# CONDITION_SET: 25 °C
PROPERTY_MEASURED: solubility (µM)
Report the figure in µM without appending any unit label.

Lab note: CC1CCCC1 gave solubility of 499

Memo: C=CCC , reported solubility: 3940

Measured solubility of CCCC : 1050

C1CCCCCCC1 has a reported solubility of 70.4

Form field solubility, entry C=CC : 4750

Value of measured solubility for the entry CCCCCC : 110

Just so you know, measured solubility for C1CCCCC1 came out at 654

Entry under test: Cc1ccc(C)c(C)c1 . Its solubility was 474

Recorded solubility (molecule C=C ): 4670

Just so you know, measured solubility for C#CC came out at 90800

// recorded solubility for C=CC=C : 13600

What the record says about C=CC(=C)C : solubility is 9340
